Attribution: ChEMBL document CHEMBL6114998

- Tested system: Ectonucleotide pyrophosphatase/phosphodiesterase family member 1 (Homo sapiens, UniProt P22413)
- Sequence (P22413 whole entry): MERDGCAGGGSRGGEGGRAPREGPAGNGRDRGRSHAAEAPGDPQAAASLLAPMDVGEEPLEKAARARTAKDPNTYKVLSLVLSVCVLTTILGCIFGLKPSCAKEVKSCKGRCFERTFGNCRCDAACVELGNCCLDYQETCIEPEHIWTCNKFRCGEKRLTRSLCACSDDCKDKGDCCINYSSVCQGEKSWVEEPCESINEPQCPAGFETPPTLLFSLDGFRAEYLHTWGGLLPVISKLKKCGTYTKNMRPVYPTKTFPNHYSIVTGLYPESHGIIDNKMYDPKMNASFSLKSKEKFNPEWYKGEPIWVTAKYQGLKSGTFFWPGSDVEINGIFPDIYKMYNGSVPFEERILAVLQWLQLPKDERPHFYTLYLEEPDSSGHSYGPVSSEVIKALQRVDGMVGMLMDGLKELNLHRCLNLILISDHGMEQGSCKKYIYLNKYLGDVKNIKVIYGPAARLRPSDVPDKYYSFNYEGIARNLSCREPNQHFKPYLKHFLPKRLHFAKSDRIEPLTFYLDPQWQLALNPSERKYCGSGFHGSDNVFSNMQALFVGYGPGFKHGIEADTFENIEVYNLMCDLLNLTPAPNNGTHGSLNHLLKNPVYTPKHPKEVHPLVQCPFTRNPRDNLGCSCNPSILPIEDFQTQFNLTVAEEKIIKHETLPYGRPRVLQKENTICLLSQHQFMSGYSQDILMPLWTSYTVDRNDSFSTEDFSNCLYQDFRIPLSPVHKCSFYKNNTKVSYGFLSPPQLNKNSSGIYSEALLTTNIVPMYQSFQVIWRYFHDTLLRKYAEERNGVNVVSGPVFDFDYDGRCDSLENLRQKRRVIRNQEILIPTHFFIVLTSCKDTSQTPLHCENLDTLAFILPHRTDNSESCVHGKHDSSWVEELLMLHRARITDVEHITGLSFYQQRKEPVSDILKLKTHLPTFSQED
- Assay procedure: Inhibition of ENPP1 in human MDA-MB-231 cells using p-NPh-5TMP as substrate at pH 9.5 measured after 60 mins
- Assay type: cell-based
Endpoint: IC50

[ask] Given the entry COc1cccc2c(NC3CC(NS(N)(=O)=O)C3)ncnc12 (stereo not drawn) , report its measured IC50.
[reply] > 1000 nM

[ask] Given the entry COc1cccc2c(N3CCC4(CC3)CC(NS(N)(=O)=O)CO4)c(C#N)cnc12 (stereo not drawn) , report its measured IC50.
[reply] > 1000 nM

[ask] Given the entry COc1cccc2c(N[C@H]3CC[C@H](CNS(N)(=O)=O)CC3)ncnc12 , report its measured IC50.
[reply] > 1000 nM
